Experiment: xn = mol fraction of the nth substance listed, in the solute-free solvent
Conditions: 303.15 K; x2 = 0.7
Value Kind: solubility (g/100 g solution)
# answer = number (no unit)

As a guide, the following entries are already answered.
Compound	Quantitative Result
CCOc1ccccc1C(N)=O + CO + CC#N	13.7
Cc1ncc(CO)c(CO)c1O.Cl + O + CC(C)O	10.1

Please find the next compound below.
(Q) I would be grateful if you could share the reported solubility (g/100 g solution) for CCOc1ccccc1C(N)=O + CCO + CC#N .
(A) 9.58

====

Quick reference for solubility (g/100 g solution) among some compounds
Test: xn = mol fraction of the nth substance listed, in the solute-free solvent
Conditions: 298.15 K; x2 = 0.8

Compound	solubility (g/100 g solution)
CCOC(=O)OC1=C(c2cc(C)ccc2C)C(=O)NC12CCC(OC)CC2 (stereo not given) + CC(C)=O + O	17.3
CCOc1ccccc1C(N)=O + CC#N + CC(C)O	5.59
Cc1c(Br)c(=O)n(C2CCCC2)c2nc(Cl)ncc12 + CC1=CC(=O)CC(C)(C)C1 + CC(C)O	1.45

(Q) Could you tell me which solubility (g/100 g solution) is on file for COC(=O)C(N)CS.Cl (stereo not given) + CCO + ClCCl ?
(A) 8.75

(Q) I have this compound here, Cc1c(Br)c(=O)n(C2CCCC2)c2nc(Cl)ncc12 + CCOC(C)=O + CCO , and I need its recorded solubility (g/100 g solution).
(A) 0.939

(Q) Look at this compound and give its reported solubility (g/100 g solution). Cc1ncc(CO)c(CO)c1O.Cl + O + CC(C)O
(A) 11.3

(Q) GET /values?readout=solubility (g/100 g solution)&item= CCOc1ccccc1C(N)=O + CO + CC#N
(A) 10.7

(Q) Any idea what its solubility (g/100 g solution) is? The compound is Cc1c(Br)c(=O)n(C2CCCC2)c2nc(Cl)ncc12 + C1CCOC1 + CCO
(A) 6.22

(Q) Suppose we examine the compound N#CCNC(=O)c1cnccc1C(F)(F)F + CCOC(C)=O + CCO ; what solubility (g/100 g solution) value has been reported?
(A) 6.59

(Q) State the recorded solubility (g/100 g solution) for this entry: Cc1ncc(CO)c(CO)c1O.Cl + O + CC#N
(A) 16.6

====

Assay: xn = mol fraction of the nth substance listed, in the solute-free solvent
Details: 283.15 K; x2 = 0.4
Threshold rule: solubility (g/100 g solution) greater than or equal to 3 is Criterion met; below that, Criterion not met.

(Q) # bool: solubility (g/100 g solution) of COC(=O)C(N)CS.Cl (stereo not given) + CCO + ClCCl >= 3
(A) Criterion met

(Q) hey, is solubility (g/100 g solution) for this one >= 3? Cc1ncc(CO)c(CO)c1O.Cl + O + CC#N
(A) Criterion not met

(Q) Reported solubility (g/100 g solution) reaches at least 3 for CCOC(=O)OC1=C(c2cc(C)ccc2C)C(=O)NC12CCC(OC)CC2 (stereo not given) + CC(C)=O + O ?
(A) Criterion met

(Q) solubility (g/100 g solution) >= 3 for O=C(NC(C(=O)O)c1ccccc1)OCc1ccccc1 (stereo not given) + CCO + O ?
(A) Criterion not met

(Q) Given the entry Cc1ncc(CO)c(CO)c1O.Cl + O + CC(C)O , answer whether its solubility (g/100 g solution) meets or surpasses 3.
(A) Criterion not met

meta.source: the CheMixHub drug solubility set
